Entry source: PubChem BioAssay

# Target Desc: Pantothenate synthetase (Mycobacterium tuberculosis (strain ATCC 25618 / H37Rv)) (UniProt P9WIL5)
# Sequence (P9WIL5 whole entry, looked up): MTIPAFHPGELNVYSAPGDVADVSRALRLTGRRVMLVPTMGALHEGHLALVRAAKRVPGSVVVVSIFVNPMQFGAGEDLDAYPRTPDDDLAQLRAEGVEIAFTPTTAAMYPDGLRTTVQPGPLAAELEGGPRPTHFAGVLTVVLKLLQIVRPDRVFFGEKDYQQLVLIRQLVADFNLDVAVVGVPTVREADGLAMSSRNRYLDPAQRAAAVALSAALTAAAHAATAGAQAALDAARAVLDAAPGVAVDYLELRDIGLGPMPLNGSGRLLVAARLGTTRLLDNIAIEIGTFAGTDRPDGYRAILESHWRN
# Assay Details: Coupled enzyme confirmation of inhibitors against recombinant Mtb PanC (AID 375);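 also: 0% = full reaction with vehicle and 100% = no enzyme background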
# Assay Setup: coupled enzyme assay; at 10 µM, stronger effect = higher value
// reported inhibition for each item listed
Measurement Kind: inhibition (%)

>  <Compound>
CCN1C(=O)/C(=C/N(C)c2ccccc2)OC1=S

>  <Measurement Kind>
inhibition

>  <Result>
4

$$$$
>  <Compound>
CC(=O)Nc1ccc(NC(=O)c2ccccc2F)cc1

>  <Measurement Kind>
inhibition

>  <Result>
0

$$$$
>  <Compound>
CCN(CCCNC(=O)C1CCN(S(=O)(=O)c2cccc3nonc23)CC1)Cc1ccccc1

>  <Measurement Kind>
inhibition

>  <Result>
6

$$$$
>  <Compound>
C(=N\c1c(-c2ccccc2)nc2n1CCS2)/c1ccccc1

>  <Measurement Kind>
inhibition

>  <Result>
4

$$$$
>  <Compound>
Cc1ccc(C)c(NC(=O)C2CCC(C)(C(=O)O)C2(C)C)c1 (stereo not given)

>  <Measurement Kind>
inhibition

>  <Result>
0

$$$$
>  <Compound>
Cc1cc(C)n(CC(=O)NC2CCCCC2)n1

>  <Measurement Kind>
inhibition

>  <Result>
0

$$$$
>  <Compound>
CCc1nnc(NC(=O)CSc2nnc3scc(-c4ccc(C)cc4)n23)s1

>  <Measurement Kind>
inhibition

>  <Result>
0

$$$$
>  <Compound>
O=C1CN(C(=O)COC(=O)c2ccccc2NC(=O)c2ccco2)c2ccccc2N1

>  <Measurement Kind>
inhibition

>  <Result>
0

$$$$
>  <Compound>
CCCCNC(=O)c1c(C)cc(=O)oc1C

>  <Measurement Kind>
inhibition

>  <Result>
9

$$$$
>  <Compound>
COCCn1nnnc1C(c1ccc(OC)cc1)N1CCN(c2ccccc2F)CC1 (stereo not given)

>  <Measurement Kind>
inhibition

>  <Result>
0

$$$$
>  <Compound>
Cc1cc(C(F)(F)F)c2c(C)nn(CCc3nn[nH]n3)c2n1

>  <Measurement Kind>
inhibition

>  <Result>
0

$$$$
>  <Compound>
CCOc1cc(NC(=O)c2ccco2)c(OCC)cc1NC(=O)Cc1cccc(OC)c1

>  <Measurement Kind>
inhibition

>  <Result>
8

$$$$
>  <Compound>
CCOC(=O)c1cc2sccc2n1Cc1ccccc1

>  <Measurement Kind>
inhibition

>  <Result>
1

$$$$
>  <Compound>
CCC(=O)N[C@@H]1CC(C(C)(C)NC(=O)CC)CC=C1C (stereo not given in full)

>  <Measurement Kind>
inhibition

>  <Result>
6

$$$$
>  <Compound>
O=C(Cn1ncc2c3ccccc3n(Cc3ccc(F)cc3)c2c1=O)N1CCC2(CC1)OCCO2

>  <Measurement Kind>
inhibition

>  <Result>
7

$$$$
>  <Compound>
COc1cccc(C2CC(c3ccc(C)cc3)Nc3nc(N)nn32)c1 (stereo not given)

>  <Measurement Kind>
inhibition

>  <Result>
0

$$$$
>  <Compound>
COc1ccccc1N(CC(=O)NC1CCCCC1)C(=O)c1cnn(C(C)C)c1

>  <Measurement Kind>
inhibition

>  <Result>
7

$$$$
>  <Compound>
O=c1[nH]c(=O)n(Cc2ccccc2)c(O)c1C=NCCCO

>  <Measurement Kind>
inhibition

>  <Result>
8

$$$$
>  <Compound>
O=C(CSc1nnc(Cn2c(=O)sc3ccccc32)n1-c1ccccc1)Nc1nccs1

>  <Measurement Kind>
inhibition

>  <Result>
1

$$$$
>  <Compound>
Cc1cc(C)n(-c2nc3ccccc3c(=O)n2OCCOc2ccccc2)n1

>  <Measurement Kind>
inhibition

>  <Result>
3

$$$$
>  <Compound>
COc1ccccc1C(=O)OCn1nnc2ccccc2c1=O

>  <Measurement Kind>
inhibition

>  <Result>
0

$$$$
>  <Compound>
c1ccc(N=P(c2nc3ccccc3o2)(N2CCOCC2)N2CCOCC2)cc1

>  <Measurement Kind>
inhibition

>  <Result>
0

$$$$
>  <Compound>
CCN1C(=O)OC2(CCCCC2)C1(C)O (stereo not given)

>  <Measurement Kind>
inhibition

>  <Result>
0

$$$$
>  <Compound>
C=CCOC(=O)COc1ccc2c(C)c(C)c(=O)oc2c1C

>  <Measurement Kind>
inhibition

>  <Result>
0

$$$$
>  <Compound>
CCn1c(SC)nc2c(c1=O)SC(C)C2 (stereo not given)

>  <Measurement Kind>
inhibition

>  <Result>
0

$$$$
>  <Compound>
CN(C)C(=O)Oc1ccc[n+](C)c1

>  <Measurement Kind>
inhibition

>  <Result>
4

$$$$
>  <Compound>
CCn1c(=O)cc(SCC(=O)N2CCN(C3CCCCC3)CC2)c2ccccc21

>  <Measurement Kind>
inhibition

>  <Result>
2

$$$$
>  <Compound>
COc1cc2[nH]c(=O)c(C(=O)NCCCN3CCCCC3)c(O)c2cc1OC

>  <Measurement Kind>
inhibition

>  <Result>
3

$$$$
>  <Compound>
CC(C)Cn1c(N)c(C(=O)COC(=O)c2ccc3c(c2)OCCO3)c(=O)n(C)c1=O

>  <Measurement Kind>
inhibition

>  <Result>
0

$$$$
>  <Compound>
COc1ccc(-n2cnnc2SCCC#N)cc1

>  <Measurement Kind>
inhibition

>  <Result>
0

$$$$
>  <Compound>
COc1cccc(-c2cc(C(=O)Nc3cc(OC)c(OC)c(OC)c3)no2)c1

>  <Measurement Kind>
inhibition

>  <Result>
0

$$$$
>  <Compound>
Cc1ccc2[nH]cc(C(=O)CN3CCC4(CC3)OCCO4)c2c1

>  <Measurement Kind>
inhibition

>  <Result>
0

$$$$
>  <Compound>
CCOc1ccc(S(=O)(=O)N2CCN(c3ccc(C)cc3C)CC2)cc1

>  <Measurement Kind>
inhibition

>  <Result>
0

$$$$
>  <Compound>
COc1ccc(OC)c(NC(=O)C23CCC(C)(C(=O)C2)C3(C)C)c1 (stereo not given)

>  <Measurement Kind>
inhibition

>  <Result>
3

$$$$
>  <Compound>
COCc1cc(C)nc(SCC(=O)Nc2cccc(C)c2C)c1C#N

>  <Measurement Kind>
inhibition

>  <Result>
5

$$$$
>  <Compound>
O=C(c1ccc2nc(N3CCOCC3)sc2c1)N1CCCC1

>  <Measurement Kind>
inhibition

>  <Result>
13

$$$$
>  <Compound>
CC1CCCCC1NC(=O)Cn1ncc2ccccc21 (stereo not given)

>  <Measurement Kind>
inhibition

>  <Result>
0

$$$$
>  <Compound>
COc1cc(OC)c(C2N(C)c3ccccc3N2C)cc1OC

>  <Measurement Kind>
inhibition

>  <Result>
0

$$$$
>  <Compound>
CSC1=NCCN1C(=O)c1ccc(S(=O)(=O)N2CCCC2)cc1

>  <Measurement Kind>
inhibition

>  <Result>
0

$$$$
>  <Compound>
COc1ccc(/C(O)=C2/C(=O)C(=O)N(CCN(C)C)C2c2ccccn2)cc1OC (stereo not given)

>  <Measurement Kind>
inhibition

>  <Result>
0

$$$$
>  <Compound>
CC1=C(C(=O)N2CCCCC2)C2(CCC(C)CC2)OC1=O (stereo not given)

>  <Measurement Kind>
inhibition

>  <Result>
12

$$$$
>  <Compound>
CC1CC(C)CN(c2nc3c(c(=O)[nH]c(=O)n3C)n2CCCSc2nc3ccccc3s2)C1 (stereo not given)

>  <Measurement Kind>
inhibition

>  <Result>
7

$$$$
>  <Compound>
COc1ccccc1-n1cnc(N)c1C(C)=O

>  <Measurement Kind>
inhibition

>  <Result>
0

$$$$
>  <Compound>
CC1C/C=C/C=C/C=C/C=C/C(O[C@@H]2O[C@H](C)[C@@H](O)[C@H](N)[C@@H]2O)CC2OC(O)(CC(O)CC3OC3/C=C/C(=O)O1)CC(O)C2C(=O)O (stereo not given in full)

>  <Measurement Kind>
inhibition

>  <Result>
5

$$$$
>  <Compound>
Cc1cc(=O)oc2cc(OCC(=O)OCc3nnc(-c4ccccc4)o3)ccc12

>  <Measurement Kind>
inhibition

>  <Result>
1

$$$$

* * *

# Target Desc: Pantothenate synthetase (Mycobacterium tuberculosis (strain ATCC 25618 / H37Rv)) (UniProt P9WIL5)
# Assay Details: Coupled enzyme confirmation of inhibitors against recombinant Mtb PanC (AID 375);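 also: 0% = full reaction with vehicle and 100% = no enzyme background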
# Assay Setup: coupled enzyme assay; at 10 µM, stronger effect = higher value

>  <Compound>
O=C(NCC1CCCO1)C1CCC(CNS(=O)(=O)c2ccccc2)CC1 (centres undefined)

>  <inhibition, %>
5

$$$$
>  <Compound>
CCOn1c(=O)c(=O)n(OCc2ccccc2)c2ccccc21

>  <inhibition, %>
0

$$$$
>  <Compound>
CC(C)C[C@H](NC(=O)Nc1cccc(C(F)(F)F)c1)C(=O)O

>  <inhibition, %>
0

$$$$
>  <Compound>
CCn1cc(C(=O)NCC2CCCO2)c(=O)c2cc(S(=O)(=O)N(C)C)ccc21 (centres undefined)

>  <inhibition, %>
0

$$$$
>  <Compound>
CC(=NCCCN1CCOCC1)c1c(O)n(-c2ccccc2C)c(=O)[nH]c1=O

>  <inhibition, %>
0

$$$$
>  <Compound>
Cc1noc(NS(=O)(=O)c2ccc(N)cc2)c1C

>  <inhibition, %>
0

$$$$
>  <Compound>
CCCCCn1c(CN2CCN(C(=O)OCC)CC2)nc2c1c(=O)[nH]c(=O)n2C

>  <inhibition, %>
3

$$$$
>  <Compound>
COc1ccc2c(c1)c1c(n2C(C)=O)C(OC(C)=O)=NCC1

>  <inhibition, %>
0

$$$$
>  <Compound>
COc1cccc(N2CCN(CC(=O)c3c[nH]c4ccc(OC)cc34)CC2C)c1 (centres undefined)

>  <inhibition, %>
2

$$$$
>  <Compound>
COCCNC(=O)C(C)N(c1ccc(Oc2ccccc2)cc1)S(C)(=O)=O (centres undefined)

>  <inhibition, %>
0

$$$$
>  <Compound>
CC(=O)N(C(C)=O)c1c(C#N)c(C)n(-c2ccccc2)c1C(=O)c1ccccc1

>  <inhibition, %>
0

$$$$
>  <Compound>
Cc1ccc2[nH]c3c(=O)n(CCCN4CCN(C)CC4)cnc3c2c1

>  <inhibition, %>
4

$$$$
>  <Compound>
Cc1ccc(CCNC(=O)C2CCCN(S(=O)(=O)c3cnc[nH]3)C2)cc1 (centres undefined)

>  <inhibition, %>
2

$$$$
>  <Compound>
CCCCOc1ccc(C(=O)N2CCC(C)CC2)cc1

>  <inhibition, %>
0

$$$$
>  <Compound>
CCN(CC)C(=O)Cn1ncc2c1-c1ccccc1OC2

>  <inhibition, %>
0

$$$$
>  <Compound>
COc1ccc(C/C(O)=C(\C#N)c2nc3ccccc3s2)cc1

>  <inhibition, %>
4

$$$$
>  <Compound>
O=C(NCCN1C(=O)C2C3C=CC(C3)C2C1=O)Nc1ccccn1 (centres undefined)

>  <inhibition, %>
0

$$$$
>  <Compound>
CCOC(=O)Cn1c(CN2CCOCC2)nc2c1c(=O)[nH]c(=O)n2C

>  <inhibition, %>
0

$$$$
>  <Compound>
CCn1c(SCC(=O)Nc2ccccc2N2CCCCC2)nc2c1c(=O)n(C)c(=O)n2C

>  <inhibition, %>
2

$$$$
>  <Compound>
Cc1ccc(S(=O)(=O)N2CCCC2)cc1S(=O)(=O)N1CCCC1

>  <inhibition, %>
0

$$$$
>  <Compound>
COc1ccc(Br)cc1S(=O)(=O)N1CC(C)OC(C)C1 (centres undefined)

>  <inhibition, %>
7

$$$$
>  <Compound>
CCOC(=O)c1cccc(NC(=O)c2ccco2)c1

>  <inhibition, %>
0

$$$$
>  <Compound>
Cc1cccc2cc(CN(CCCO)C(=O)Nc3ccc(Cl)cc3)c(=O)[nH]c12

>  <inhibition, %>
5

$$$$
>  <Compound>
Cc1c(C(=O)NC2CCCc3ccccc32)oc2ccc(S(=O)(=O)N3CCOCC3)cc12 (centres undefined)

>  <inhibition, %>
6

$$$$
>  <Compound>
CC1CCCCC1NC(=O)c1ccc(N2CCCC2=O)cc1 (centres undefined)

>  <inhibition, %>
0

$$$$
>  <Compound>
CCN1CCN(c2c(Cl)cccc2NC(=O)c2ccco2)CC1

>  <inhibition, %>
9

$$$$
>  <Compound>
O=C(CC1Oc2ccc(Cl)cc2NC1=O)NC1CCCCCC1 (centres undefined)

>  <inhibition, %>
6

$$$$
>  <Compound>
COc1ccc2c(c1)CCc1cc(C(=O)N3CCN(c4ccc(N5CCOCC5)nn4)CC3)sc1-2

>  <inhibition, %>
2

$$$$
>  <Compound>
O=C(O)c1cccc(NC(=O)C2C3C=CC(C3)C2C(=O)OCC(F)(F)C(F)F)c1 (centres undefined)

>  <inhibition, %>
5

$$$$
>  <Compound>
Cc1cccc(NC(=O)CSc2nnc(-c3ccccc3C)o2)c1

>  <inhibition, %>
0

$$$$
>  <Compound>
CCSC1(SCC)N=C(N)C2(C#N)C(c3ccccc3)NC(C)=C(C)C12C#N (centres undefined)

>  <inhibition, %>
0

$$$$
>  <Compound>
CSc1nc(N)nc(SCCS(=O)(=O)c2ccc(Cl)cc2)c1C#N

>  <inhibition, %>
0

$$$$
>  <Compound>
CCOc1ccccc1NC(=O)C1CCCN(S(=O)(=O)c2cccc3cccnc23)C1 (centres undefined)

>  <inhibition, %>
6

$$$$
>  <Compound>
O=C(Cn1cnc2c(oc3ccccc32)c1=O)N1CCN(c2ccccc2)CC1

>  <inhibition, %>
1

$$$$
>  <Compound>
C/C(=C(\C#N)C(=O)NCCCN1CCOCC1)N(C)C

>  <inhibition, %>
0

$$$$
>  <Compound>
CCN(CC)CCCNC(=O)c1nn(-c2ccc(OC)cc2OC)c(=O)c2ccccc12

>  <inhibition, %>
0

$$$$
>  <Compound>
COCCCNC(=O)Cn1cc2c(n1)CCC(C)C2 (centres undefined)

>  <inhibition, %>
3

$$$$
>  <Compound>
Cc1cc(=O)[nH]c2c1cnn2Cc1ccccc1

>  <inhibition, %>
1

$$$$
>  <Compound>
CCOC(=O)c1c(NC(=O)OC)sc(C(=O)N(C)C)c1C

>  <inhibition, %>
1

$$$$
>  <Compound>
COc1ccc(-c2nc3c(c(=O)n(C)c(=O)n3C)n2CC2CC(c3ccccc3)=NO2)cc1OC (centres undefined)

>  <inhibition, %>
1

$$$$
>  <Compound>
COc1ccc2c(c1)CCc1c(C(=O)N3CCCc4ccccc43)noc1-2

>  <inhibition, %>
4

$$$$
>  <Compound>
COCCn1c(SCC(=O)N2CCc3ccccc32)nc2c(c1=O)SC(C)C2 (centres undefined)

>  <inhibition, %>
1

$$$$
>  <Compound>
COc1ccc(C(=O)Nc2cccc(-c3nc4ncccc4o3)c2C)cc1OC

>  <inhibition, %>
2

$$$$
>  <Compound>
Cc1c(C(=O)NCc2cccnc2)oc2ccc(S(=O)(=O)N3CCCCC3)cc12

>  <inhibition, %>
0

$$$$
